Entries and their measured HC50 follow.
- Test system: human red blood cells (hRBCs)
- Type: cell-based
- conditionLabel: red cells of human, 1 h
Residues, ends and D or L forms follow the SMILES beside them. *: point of attachment. Lauroyl = CCCCCCCCCCCC(=O)*; Octanoyl = CCCCCCCC(=O)*

compound | result
CCCCCCCCCCCC(=O)N[C@@H](CCCCN)C(=O)N[C@@H](CCCNC(=N)N)C(=O)N[C@H](C(=O)N[C@@H](Cc1c[nH]c2ccccc12)C(N)=O)[C@@H](C)CC [Peptide C12-KR4] (Lauroyl-KRIW-NH2) | 30 µM
CCCCCCCCCCCC(=O)N[C@@H](CCCCN)C(=O)N[C@@H](CCCNC(=N)N)C(=O)N[C@H](C(=O)N[C@@H](Cc1c[nH]c2ccccc12)C(=O)N[C@@H](CCC(N)=O)C(=O)N[C@@H](CCCNC(=N)N)C(=O)N[C@H](C(=O)N[C@@H](CCCCN)C(=O)N[C@@H](CC(=O)O)C(=O)N[C@@H](Cc1ccccc1)C(=O)N[C@@H](CC(C)C)C(=O)N[C@@H](CCCNC(=N)N)C(N)=O)[C@@H](C)CC)[C@@H](C)CC [Peptide C12-KR12] (Lauroyl-KRIWQRIKDFLR-NH2) | <25 µM

## Task // HC50 lookup, key: CCCCCCCC(=O)N[C@@H](CCCCN)C(=O)N[C@@H](CCCNC(=N)N)C(=O)N[C@H](C(=O)N[C@@H](Cc1c[nH]c2ccccc12)C(=O)N[C@@H](CCC(N)=O)C(=O)N[C@@H](CCCNC(=N)N)C(=O)N[C@H](C(=O)N[C@@H](CCCCN)C(N)=O)[C@@H](C)CC)[C@@H](C)CC [Peptide C8-KR8] (Octanoyl-KRIWQRIK-NH2)
## Result >200 µM

###

- Test system: human red blood cells (hRBCs)
- Type: cell-based
- conditionLabel: red cells of human, 1 h
Non-standard residues stand in square brackets, D forms with d. Residues, ends and D or L forms follow the SMILES beside them. *: point of attachment. Lauroyl = CCCCCCCCCCCC(=O)*; Decanoyl = CCCCCCCCCC(=O)*; Octanoyl = CCCCCCCC(=O)*
measuredEndpoint: HC50 (µM)
Write the answer as a number in µM, unit excluded.

## Task If you can, please state the reported HC50 value of CCCCCCCCCCCC(=O)N[C@@H](CCCCN)C(=O)N[C@@H](CCCNC(=N)N)C(=O)N[C@H](C(=O)N[C@@H](Cc1c[nH]c2ccccc12)C(=O)N[C@@H](CCC(N)=O)C(=O)N[C@@H](CCCNC(=N)N)C(=O)N[C@H](C(=O)N[C@@H](CCCCN)C(N)=O)[C@@H](C)CC)[C@@H](C)CC [Peptide C12-KR8] (Lauroyl-KRIWQRIK-NH2) .
## Result 35

## Task Please answer likewise for CCCCCCCC(=O)N[C@H](CCCCN)C(=O)N[C@H](CCCNC(=N)N)C(=O)N[C@@H](C(=O)N[C@H](Cc1c[nH]c2ccccc12)C(=O)N[C@H](CCC(N)=O)C(=O)N[C@H](CCCNC(=N)N)C(=O)N[C@@H](C(=O)N[C@H](CCCCN)C(=O)N[C@H](CC(=O)O)C(=O)N[C@H](Cc1ccccc1)C(N)=O)[C@H](C)CC)[C@H](C)CC [Peptide C8-KR10d] (Octanoyl-[dK][dR][dI][dW][dQ][dR][dI][dK][dD][dF]-NH2)
## Result 150

## Task Note, next up: CCCCCCCCCC(=O)N[C@@H](CCCCN)C(=O)N[C@@H](CCCNC(=N)N)C(=O)N[C@H](C(=O)N[C@@H](Cc1c[nH]c2ccccc12)C(N)=O)[C@@H](C)CC [Peptide C10-KR4] (Decanoyl-KRIW-NH2)
## Result 150
